# System: KO-52 cells
# METHOD SUMMARY: Proliferation assay, spheroid-like growth, KO-52 (MLL wildtype control cell line)
# Type: cell-based, human
# CONDITION DESCRIPTION: Homo sapiens, 192 h, KO-52 control cells, 8 days, confluence as measure of spheroid size; read-out: spheroid assay_OneTime KO-52 IC50
ENDPOINT: log10(IC50) (log10 of the value in µM)
Friendly reminder: values = log10 of IC50, unit µM.

# return log10(IC50) for each item in the list
1. CC(C)[C@@H]([C@H]1C[C@@H](N2CCC3(CC2)COC3)C1)N1CC2(CCN(c3ncnnc3Oc3ccc(F)cc3-c3nnccc3C3CC3)C2)C1 (single isomer, unassigned) [Compound 253]
2. CC(C)[C@H]([C@H]1C[C@@H](N2CC3(COC3)C2)C1)N1CC2(CCN(c3ncnnc3Oc3ccc(F)cc3-c3ncc(C#N)cc3C3CC3)C2)C1 (single isomer, unassigned) [Compound 94]
3. CC(C)[C@@H]([C@H]1CC[C@@H](NC(=O)C2CC2)C1)N1CC2(CCN(c3ncnnc3Oc3ccc(F)cc3-c3cncnc3C3CC3)C2)C1 (single isomer, unassigned) [Compound 344]
4. CC(C)[C@@H]([C@H]1C[C@@H](N2CCC(S(C)(=O)=O)CC2)C1)N1CC2(CCN(c3ncnnc3Oc3ccc(F)cc3-c3ncncc3C3CC3)C2)C1 (single isomer, unassigned) [Compound 98]
5. CC(C)[C@H]([C@H]1C[C@@H](N2CC3(COC(=O)N3)C2)C1)N1CC2(CCN(c3ncnnc3Oc3ccc(F)cc3-c3cncnc3C3CC3)C2)C1 (single isomer, unassigned) [Compound 318]
6. COc1ncc(-c2cc(F)ccc2Oc2nncnc2N2CCC3(C2)CN(C(C(C)C)[C@H]2C[C@@H](NC(C)=O)C2)C3)c(C2CC2)n1 (stereo partly drawn) [Compound 500]
7. CC(C)[C@H]([C@H]1C[C@@H](N2C[C@H]3C[C@@H]2CO3)C1)N1CC2(CCN(c3ncnnc3Oc3ccc(F)cc3-c3ncccc3C3CC3)C2)C1 (single isomer, unassigned) [Compound 288]

1: 0.21; 2: 0.53; 3: 0.20; 4: 0.64; 5: 0.84; 6: 1.01; 7: 1.08

For each entry beneath this line, provide reported log10(IC50).
1. CC(C)[C@H]([C@H]1C[C@@H](NC(=O)C2CC2)C1)N1CC2(CCN(c3ncnnc3Oc3ccc(F)cc3-c3cncnc3C3CC3)C2)C1 (single isomer, unassigned) [Compound 303]
2. COC1CCN([C@H]2C[C@@H](C(C(C)C)N3CC4(CCN(c5ncnnc5Oc5ccc(F)cc5-c5cncnc5C5CC5)C4)C3)C2)CC1 (single isomer, unassigned) [Compound 16]
3. CC(C)[C@H]([C@H]1C[C@@H](N2CCC[C@@H](F)C2)C1)N1CC2(CCN(c3ncnnc3Oc3ccc(F)cc3-c3cncnc3C3CC3)C2)C1 (single isomer, unassigned) [Compound 206]
4. CC(C)[C@@H]([C@H]1C[C@H](N(C)C)C1)N1CC2(CCN(c3ncnnc3Oc3ccc(F)cc3-c3cccnc3C3CC3)C2)C1 (single isomer, unassigned) [Compound 91]

1. 0.66
2. 0.27
3. 0.90
4. 0.01

Consider the following items and state reported log10(IC50) for each.
1. CC1CN([C@H]2C[C@@H]([C@@H](C(C)C)N3CC4(CCN(c5ncnnc5Oc5ccc(F)cc5-c5cncnc5C5CC5)C4)C3)C2)CCC1O (single isomer, unassigned) [Compound 201]
2. CC(C)[C@H]([C@H]1C[C@@H](N2CCC(S(=O)(=O)C(C)C)CC2)C1)N1CC2(CCN(c3ncnnc3Oc3ccc(F)cc3-c3cncnc3C3CC3)C2)C1 (single isomer, unassigned) [Compound 209]

0.63
0.72
